MEASURED_TARGET: CYP2D6 (Homo sapiens, UniProt P10635)
Construct: 0.1 mg/mL protein human liver microsomes (BD Gentest); tissue BD Gentest; host or cells: human liver microsomes
Sequence (P10635 whole entry): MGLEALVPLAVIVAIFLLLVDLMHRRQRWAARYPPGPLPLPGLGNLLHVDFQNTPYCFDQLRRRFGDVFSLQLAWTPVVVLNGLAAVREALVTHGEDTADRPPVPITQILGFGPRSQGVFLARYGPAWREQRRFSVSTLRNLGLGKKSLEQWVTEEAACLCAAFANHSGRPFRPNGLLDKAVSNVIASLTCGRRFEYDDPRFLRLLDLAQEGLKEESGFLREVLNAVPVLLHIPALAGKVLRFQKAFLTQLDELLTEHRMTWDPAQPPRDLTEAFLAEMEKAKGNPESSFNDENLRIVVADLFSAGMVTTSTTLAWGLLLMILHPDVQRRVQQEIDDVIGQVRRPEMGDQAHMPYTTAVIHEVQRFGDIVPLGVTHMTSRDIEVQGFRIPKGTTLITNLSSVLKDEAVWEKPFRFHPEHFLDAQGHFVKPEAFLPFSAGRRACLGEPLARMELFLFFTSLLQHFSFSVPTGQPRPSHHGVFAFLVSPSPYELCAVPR
PROTOCOL_SUMMARY: Cocktail assay for CYPs in human liver microsomes: CYP2D6 (dextromethorphan O-demethylation)
Format: biochemical
ASSAY_SETUP: human liver microsomes 0.1 mg/mL, 5 μM dextromethorphan, 10 min at 37° C., 6 concentrations up to 10 μM; read-out: IC50 (nM) CYP2D6
QUANTITY_KIND: IC50 (nM)
Please reply with the bare figure in nM and do not write the unit itself.

Considering CC(c1ccccc1-c1ccc(F)cc1)n1cncc1CN1CCN(C(=O)c2ccccc2)CC1 (stereo not drawn) [Compound 59] , its IC50 with CYP2D6 (Homo sapiens, UniProt P10635) was recorded as 2210

Considering Cc1noc(C2(C)CCN(Cc3cncn3[C@H](C)c3ccc(F)cc3)CC2)n1 [Compound 10] , its IC50 with CYP2D6 (Homo sapiens, UniProt P10635) was recorded as 2100

Considering CCS(=O)(=O)c1cnc(N2CCN(Cc3cncn3[C@H](C)Cc3ccc(F)cc3)CC2)s1 [Compound 40] , its IC50 with CYP2D6 (Homo sapiens, UniProt P10635) was recorded as 5260
